The origin of these recorded values is ChEMBL document CHEMBL6087396.

experimentalTarget: UniProt:P0DTD1
endpoint: pKi
# reply with the number alone; pKi is -log10 of concentration in mol/L

Nc1ncnc2c1ncn2[C@@H]1O[C@H](CSCCCCNCc2cccc(-c3ccc(Cl)cc3)c2)[C@@H](O)[C@H]1O = 5.22

Now consider a different molecule.
# input Returns the measured pKi for the input molecule. Input: CC(C)N(CCCNC(=O)Nc1ccc(C(C)(C)C)cc1)C[C@H]1O[C@@H](n2cc(Br)c3c(N)ncnc32)[C@H](O)[C@@H]1O
# output 5.10

----------
experimentalTarget: Replicase polyprotein 1ab
methodSummary: Inhibition of N-terminal 6His-tagged SARS-CoV nsp14 extracted from Escherichia coli
endpoint: log10(IC50) (log10 of the value in µM)
On a log10 scale: recorded IC50, unit µM.

Solved cases (2 shown):
Nc1ncnc2c1c(C#Cc1cnc3ccccc3c1)cn2[C@@H]1O[C@H](CSCC[C@H](N)C(=O)O)[C@@H](O)[C@H]1O = -2.52
Nc1ncnc2c1ncn2[C@@H]1O[C@H](CNS(=O)(=O)c2ccc3ccccc3c2)[C@@H](O)[C@H]1O = 1.97

# input Returns the measured log10(IC50) for the input compound. Input: Cc1cc(=O)oc2cc(NC(=O)[C@H]3O[C@@H](n4cc(C#Cc5cncnc5)c5c(N)ncnc54)[C@H](O)[C@@H]3O)ccc12
# output 1.49

# input Returns the measured log10(IC50) for the input compound. Input: Nc1ncnc2c1ncn2[C@@H]1O[C@H](CN(CCO[C@@H]2[C@H](O)[C@@H](CO)O[C@H]2n2cnc3c(N)ncnc32)S(=O)(=O)c2ccc(Cl)c([N+](=O)[O-])c2)[C@@H](O)[C@H]1O
# output -0.22

# input Returns the measured log10(IC50) for the input compound. Input: Nc1ncnc2c1ncn2[C@@H]1O[C@H](CSCc2cc(C(=O)O)cc(-c3ccccc3)c2)[C@@H](O)[C@H]1O
# output -0.24

# input Returns the measured log10(IC50) for the input compound. Input: COc1ccc(S(=O)(=O)N(C)C[C@H]2O[C@@H](n3cc(C#Cc4cnc5ccccc5c4)c4c(N)ncnc43)[C@H](O)[C@@H]2O)cc1C#N
# output -0.14

# input Returns the measured log10(IC50) for the input compound. Input: NC[C@@H](CC[C@H](N)C(=O)O)C[C@H]1O[C@@H](n2cnc3c(N)ncnc32)[C@H](O)[C@@H]1O
# output 0.04

# input Returns the measured log10(IC50) for the input compound. Input: CC1=C(C)C(=O)C(C(C)(C)CC(=O)N(CCCCSC[C@H]2O[C@@H](n3cnc4c(N)ncnc43)[C@H](O)[C@@H]2O)Cc2cccc(-c3ccc(Cl)cc3)c2)=C(C)C1=O
# output 0.04

# input Returns the measured log10(IC50) for the input compound. Input: Nc1ncnc2c1ncn2[C@@H]1O[C@H](CSCC[C@H](N)C(=O)O)[C@@H](O)[C@H]1O
# output 1.20
